System: human hepatoma cell line Huh7
Assay: Cytotoxicity determination, ATPLite kit
Assay type: cell-based
Conditions: Huh7 cells, genotype 1b, 10% FBS
OUTCOME MEASURE: CC50

| COMPOUND | OUTCOME MEASURE | MEASURED |
| --- | --- | --- |
| CC(C)OC(=O)[C@H](C)NP(=O)(OC[C@H]1OC(n2ccc(N)nc2=O)C(F)(F)[C@@H]1O)Oc1ccccc1 (some centres unmarked) [compound 2] | CC50 | > 10 µM |

Return the recorded CC50 value; entry: CC(C)OC(=O)[C@H](C)N[P@](=O)(OC[C@H]1O[C@@H](n2ccc(=O)[nH]c2=O)[C@](C)(F)[C@@H]1O)Oc1ccccc1 [PSI-7977, reference compound] > 10 µM

---

System: subgenomic RNA-replicon HCV (genotype 1a)
Experiment: Antiviral activity in Huh7 cells with subgenomic HCV RNA-replicon, ELISA on viral cor-antigen (genotype 1a)
Assay type: cell-based
Conditions: Hepatitis C virus, Huh-7; Huh7 replicon, genotype 1a, 10% FBS; read-out: EC50, HCV genotype 1a
OUTCOME MEASURE: EC50

In the examples that follow, each entry is paired with its recorded EC50.
| MOLECULE | EC50 |
| --- | --- |
| CC(=O)O[C@@H]1[C@@H](COP(=O)(N[C@@H](C)C(=O)OC(C)C)Oc2ccccc2)OC(n2ccc(N)nc2=O)C1(F)F (stereo partly shown) [compound 3] | 0.141 µM |
| CC(C)OC(=O)[C@H](C)NP(=O)(OC[C@H]1O[C@@H](n2ccc(NC(=O)[C@H](NC(=O)OC(C)(C)C)C(C)C)nc2=O)C(F)(F)[C@@H]1O)Oc1ccccc1 (stereo partly shown) [1.1.2(2)] | 0.0956 µM |
| CC(C)OC(=O)[C@H](C)NP(=O)(OC[C@H]1O[C@@H](n2ccc(NC(=O)CN(C)C)nc2=O)C(F)(F)[C@@H]1O)Oc1ccccc1 (stereo partly shown) [1.1.2(1)] | 0.106 µM |

Turning to the following molecule.
Return the recorded EC50 value; entry: CC(C)OC(=O)[C@H](C)NP(=O)(OC[C@H]1OC(n2ccc(NC(=O)[C@@H]3CCCN3C)nc2=O)C(F)(F)[C@@H]1O)Oc1ccc(Cl)cc1 (stereo partly shown) [1.1.2(6)] 0.123 µM

---

System: subgenomic RNA-replicon HCV (genotype 1b)
Assay: Antiviral activity in Huh7 cells with subgenomic HCV RNA-replicon, ELISA on viral cor-antigen (genotype 1b)
Format: cell-based
Settings: Huh7 replicon, genotype 1b, 10% FBS; read-out: EC50, HCV genotype 1b
Overview of reported pEC50 across a group of molecules:
Just the number, please; pEC50 means minus log10 of the concentration in mol/L.

| MOLECULE | pEC50 |
| --- | --- |
| CC(C)OC(=O)[C@H](C)NP(=O)(OC[C@H]1OC(n2ccc(N)nc2=O)C(F)(F)[C@@H]1O)Oc1ccccc1 (some centres unmarked) | 7.86 |

Return the recorded pEC50 value; entry: CC(C)OC(=O)[C@H](C)N[P@](=O)(OC[C@H]1O[C@@H](n2ccc(=O)[nH]c2=O)[C@](C)(F)[C@@H]1O)Oc1ccccc1 [PSI-7977, reference compound] 7.04

---

System: subgenomic RNA-replicon HCV (genotype 2a)
Test: Antiviral activity in Huh7 cells with subgenomic HCV RNA-replicon, ELISA on viral cor-antigen (genotype 2a)
Assay type: cell-based
Conditions: Huh7 replicon, genotype 2a, 10% FBS; read-out: EC50, HCV genotype 2a
OUTCOME MEASURE: EC50 (nM)
Express your answer in nM, writing the number without its unit.

| MOLECULE | EC50 / nM |
| --- | --- |
| CC(C)OC(=O)[C@H](C)N[P@](=O)(OC[C@H]1O[C@@H](n2ccc(=O)[nH]c2=O)[C@](C)(F)[C@@H]1O)Oc1ccccc1 [PSI-7977, reference compound] | 88.4 |

Return the recorded EC50 value; entry: CC(C)OC(=O)[C@H](C)NP(=O)(OC[C@H]1OC(n2ccc(N)nc2=O)C(F)(F)[C@@H]1O)Oc1ccccc1 (some centres unmarked) 57.2

---

Test system: subgenomic RNA-replicon HCV (genotype 2a)
Assay: Antiviral activity in Huh7 cells with subgenomic HCV RNA-replicon, ELISA on viral cor-antigen (genotype 2a)
Format: cell-based
Details: Hepatitis C virus, Huh-7, read-out: EC50, HCV genotype 2a
OUTCOME MEASURE: pEC50
Just the number, please; pEC50 means minus log10 of the concentration in mol/L.

Answer briefly: pEC50 recorded on subgenomic RNA-replicon HCV (genotype 2a) for CC(C)OC(=O)C(C)NP(=O)(OCC1OC(n2ccc(NC(=O)C(NC(=O)OC(C)(C)C)C(C)C)nc2=O)C(F)(F)C1O)Oc1ccccc1 (stereo not shown) [1.1.2(3)] 7.16

---

System: subgenomic RNA-replicon HCV (genotype 2a)
Test: Antiviral activity in Huh7 cells with subgenomic HCV RNA-replicon, ELISA on viral cor-antigen (genotype 2a)
Assay type: cell-based
Settings: Hepatitis C virus, Huh-7; Huh7 replicon, genotype 2a, 10% FBS; read-out: EC50, HCV genotype 2a
OUTCOME MEASURE: EC50 (nM)
Express your answer in nM, writing the number without its unit.

| MOLECULE | TARGET ENTITY | READOUT UNITS | EC50 |
| --- | --- | --- | --- |
| CC(=O)O[C@@H]1[C@@H](COP(=O)(N[C@@H](C)C(=O)OC(C)C)Oc2ccccc2)OC(n2ccc(N)nc2=O)C1(F)F (stereo partly shown) | subgenomic RNA-replicon HCV (genotype 2a) | nM | 61 |
| CC(C)OC(=O)[C@H](C)NP(=O)(OC[C@H]1OC(n2ccc(NC(=O)[C@@H]3CCCN3C)nc2=O)C(F)(F)[C@@H]1O)Oc1ccc(Cl)cc1 (stereo partly shown) | subgenomic RNA-replicon HCV (genotype 2a) | nM | 79.3 |

Return the recorded EC50 value; entry: CC(C)OC(=O)[C@H](C)NP(=O)(OC[C@H]1O[C@@H](n2ccc(NC(=O)CN(C)C)nc2=O)C(F)(F)[C@@H]1O)Oc1ccccc1 (stereo partly shown) 116

Return the recorded EC50 value; entry: CC(C)OC(=O)[C@H](C)NP(=O)(OC[C@H]1O[C@@H](n2ccc(NC(=O)[C@H](NC(=O)OC(C)(C)C)C(C)C)nc2=O)C(F)(F)[C@@H]1O)Oc1ccccc1 (stereo partly shown) 78.9

The reported measurements were obtained from patent US20160031927A1.
